assay: chemical genetic growth profiling, strain panel (AID 1159580);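 further: tested at 20 µM; growth read once vehicle control cultures reached saturation at 30 °C; 1 = growth at the plate median or of vehicle wells; lower values mean less growth of the strain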; conditions: S. cerevisiae deletion strains, growth OD, locus YOR136W, strain idh2, hits give low values
Out of some 5,500 compounds screened, about 2,000 (36%) were called active. Not shown: some 18% with an inconclusive outcome. Some of the results follow.
endpoint-label: normalized growth
Could you keep your reply to the number by itself?

Sample records with normalized growth:
molecule: COc1ccc2c(c1)OCC(Cc1ccc(OC)c(OC)c1)C2=O (stereo not given)
normalized growth: 0.99
//
molecule: CCN1C[C@@]2(COC)C3[C@@H](OC)[C@H]4[C@@H]1[C@]3(C(OC)C[C@H]2O)C1C[C@@]2(O)[C@H](OC(=O)c3ccccc3)C1[C@]4(OC(C)=O)[C@@H](O)[C@@H]2OC (stereo not given in full)
normalized growth: 1.04
//
molecule: NC1(C(=O)O)CCC1
normalized growth: 0.973
//
molecule: COC1=CC(=O)OC(CCc2ccc(OC)c(OC)c2)C1 (stereo not given)
normalized growth: 1.02

If you can, please state the reported normalized growth value of COc1ccc2c(c1)OCC(Cc1ccc(OC)c(OC(C)=O)c1)C2=O (stereo not given) . 1

====

Reported normalized growth values for a set of compounds
assay: chemical genetic growth profiling, strain panel (AID 1159580); conditions: S. cerevisiae deletion strains, growth OD, locus YJL166W, strain qcr8, hits give low values
About 2,000 (36%) of roughly 5,500 compounds were called active. Not shown: some 18% with an inconclusive outcome. This is one part of the list.
The answer should be written as a number, with no unit following it.

// below: answered compounds
compound: O=C1CCCN1CC#CCN1CCCC1
normalized growth: 1.02
//
compound: CC(C)/C(O)=C1/C(=O)O[C@@H](c2ccoc2)[C@]2(C)C(O)[C@@H](O)[C@@]34OC5(C)OC67CC(C)(C(O)[C@]6(O)[C@@H](O)[C@]3(O5)C12)[C@H](CC(=O)O)[C@]74C (stereo not given in full)
normalized growth: 1
//
compound: COc1cc2c(cc1OC)C1(O)C(=O)c3ccc(O)c(C(=O)O)c3OC1CO2 (stereo not given)
normalized growth: 0.997
//
compound: COc1ccc2c(c1)OCC(Cc1ccc(OC)c(OC(C)=O)c1)C2=O (stereo not given)
normalized growth: 0.961

Query: normalized growth; subject: NCCCNCCSP(=O)(O)O 0.956

How about Cc1cccc(C)c1NC(=O)C1CCCCN1C (stereo not given) ? 0.993

Query COc1cc(NS(C)(=O)=O)ccc1Cc1c2ccccc2nc2ccccc12 next 0.945

// repeat for COc1ccc2c(c1)OCC(Cc1ccc(O)c(OC)c1)C2=O (stereo not given) and report 0.991

Similarly, NC(=O)CS(=O)C(c1ccccc1)c1ccccc1 (stereo not given) ? 0.982

Record: CC(=O)OCC(=O)[C@@]1(O)CCC2C3CCC4=CC(=O)C=CC4(C)C3[C@@H](O)C[C@@]21C (stereo not given in full) 0.951

====

Items are presented alongside their recorded normalized growth.
test: chemical genetic growth profiling, strain panel (AID 1159580); settings: S. cerevisiae deletion strains, growth OD, locus YER016W, strain bim1, hits give low values
Hit rate of the full screen: of about 5,500 compounds, about 2,000 (36%) were called active. Another 18% or so got no clear call; they are omitted. This is one part of the list.

Given COc1cc(C)c2c(=O)cc(-c3ccccc3)oc2c1 , state its recorded normalized growth. 0.935 (inactive)

====

experiment: chemical genetic growth profiling, strain panel (AID 1159580);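 further: tested at 20 µM; growth read once vehicle control cultures reached saturation at 30 °C; 1 = growth at the plate median or of vehicle wells; lower values mean less growth of the strain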; conditions: S. cerevisiae deletion strains, growth OD, locus YKL085W, strain MDH1, hits give low values
Hit rate of the full screen: of about 5,500 compounds, about 2,000 (36%) were called active. Not shown: some 18% with an inconclusive outcome. The list shows a part of the results.
Listed here are compounds together with their documented normalized growth.
Give only the figure.

compound: CC(=O)O[C@H]1CC[C@@]2(C)C(C[C@@H](OC(C)=O)[C@]3(C)C2CC[C@@]2(C)[C@H](c4ccoc4)OC(=O)[C@H]4O[C@]423)C1(C)C (stereo partly specified)
endpoint-label: normalized growth
numeric-value: 1.04

compound: COC(=O)[C@@H]1OC(=O)C2OC23[C@@]1(C)CCC1[C@]2(C)C(C[C@@H](O)[C@]13C)C(C)(C)[C@H](OC(C)=O)C[C@@H]2OC(C)=O (stereo partly specified)
endpoint-label: normalized growth
numeric-value: 0.999

compound: C[C@]12CCC3C(CC[C@H]4C[C@H](O)CC[C@]34C)C1CC[C@@H]2O (stereo partly specified)
endpoint-label: normalized growth
numeric-value: 1.01

compound: CC(=O)O[C@@H]1CC2C(C)(C)[C@H](O)CC[C@]2(C)C2CC[C@@]3(C)[C@H](c4ccoc4)OC(=O)C4OC43[C@@]21C (stereo partly specified)
endpoint-label: normalized growth
numeric-value: 0.99

compound: Cc1cccc(C)c1NC(=O)C1CCCCN1C (stereo unspecified)
endpoint-label: normalized growth
numeric-value: 1

Give the measured normalized growth of COc1c(C)c2c(c(O)c1C/C=C(\C)CCC(=O)O)C(=O)OC2 . 0.279

And the next one, CC1OC(O[C@H]2/C=C/C=C/C=C/C=C/C=C/C=C/C=C/[C@H](C)[C@@H](O)[C@@H](C)[C@H](C)OC(=O)CC(O)CC(O)CCC(O)C(O)CC(O)C[C@]3(O)C[C@H](O)C(C(=O)O)C(C2)O3)C(O)[C@H](N)C1O (stereo partly specified) ? 1

CNc1ccc(C(=O)CC(O)CCC(C)C2OC(=O)CC(O)CC(=O)CC(O)CC(O)CC(O)CC(O)CC3(O)CC(O)C(C(=O)OC)C(CC(OC4OC(C)C(O)C(N)C4O)/C=C/C=C/C=C/C=C/C=C/C=C/C=C/C2C)O3)cc1 (stereo unspecified) ? 0.0497

// repeat for COc1cc(C)c2c(=O)cc(-c3ccccc3)oc2c1 and report 0.965

====

assay: chemical genetic growth profiling, strain panel (AID 1159580);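 further: tested at 20 µM; growth read once vehicle control cultures reached saturation at 30 °C; 1 = growth at the plate median or of vehicle wells; lower values mean less growth of the strain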; conditions: S. cerevisiae deletion strains, growth OD, locus YPR141C, strain kar3
The whole screen tested about 5,500 compounds, of which about 2,000 (36%) were called active. About 18% were inconclusive and are not listed. Rule as the data show it: active = normalized growth mostly below about 0.91 (no sharp cut-off); inconclusive = no clear call, values can overlap the other calls; inactive = mostly above about 0.92. Some of the results follow.
Lab note: assign the record to one of Y = active, N = inactive

Some entries whose results are on file:
molecule: CN(C)C(=O)Oc1ccc[n+](C)c1
discrete-label: N

molecule: CC1OC(O[C@H]2/C=C/C=C/C=C/C=C/C=C/C=C/C=C/[C@H](C)[C@@H](O)[C@@H](C)[C@H](C)OC(=O)CC(O)CC(O)CCC(O)C(O)CC(O)C[C@]3(O)C[C@H](O)C(C(=O)O)C(C2)O3)C(O)[C@H](N)C1O (some centres undefined)
discrete-label: N

molecule: CNc1ccc(C(=O)CC(O)CCC(C)C2OC(=O)CC(O)CC(=O)CC(O)CC(O)CC(O)CC(O)CC3(O)CC(O)C(C(=O)OC)C(CC(OC4OC(C)C(O)C(N)C4O)/C=C/C=C/C=C/C=C/C=C/C=C/C=C/C2C)O3)cc1 (centres undefined)
discrete-label: Y

molecule: CC(=O)Oc1ccc2c(c1)CCC1C2CC[C@]2(C)C(=O)CCC12 (some centres undefined)
discrete-label: N

molecule: C[C@]12CCC3c4ccc(O)cc4CCC3C1CCC2=O (some centres undefined)
discrete-label: N

What did the test return for Cc1cccc(C)c1NC(=O)C1CCCCN1C (centres undefined) ? N

How about C[C@]12CCC3c4ccc(OC(=O)c5ccccc5)cc4CCC3C1CCC2=O (some centres undefined) ? N

Next record, please: CN=C(N)NCCCC(N)C(=O)O (centres undefined) N

Next up: C=NC(C(=O)NC1C(=O)N2C1SC(C)(C)C2C(=O)O)c1ccccc1 (centres undefined) N

====

Reported normalized growth values are given for each entry in this list.
assay: chemical genetic growth profiling, strain panel (AID 1159580);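 further: tested at 20 µM; growth read once vehicle control cultures reached saturation at 30 °C; 1 = growth at the plate median or of vehicle wells; lower values mean less growth of the strain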; settings: S. cerevisiae deletion strains, growth OD, locus YJL164C, strain tpk1, hits give low values
Screen size: about 5,500 compounds; about 2,000 (36%) were called active. About 18% were inconclusive and are not listed. The list shows a part of the results.
// print number alone

Recorded results for 3 compounds are shown here.
compound: CC(C)(S)[C@@H](N)C(=O)O
normalized growth: 1.01

compound: N[C@@H](C(=O)O)[C@@H](O)[C@H](O)[C@H](O)CO
normalized growth: 1.03

compound: COc1ccc2oc3ccccc3c(=O)c2c1
normalized growth: 0.844

Return reported normalized growth; argument: COc1ccc(-c2oc3cc(OC)c(OC)c(OC)c3c(=O)c2OC)cc1OC 0.974

Moving on to NCCCNCCSP(=O)(O)O 0.992

Subsequent entry: O=C(O)C(O)C(O)C(=O)O (stereo not drawn) 1.01

Now try O=C(O)[C@@H](S)[C@@H](S)C(=O)O . 0.966

Same for NC(C(=O)O)C(O)C(=O)O (stereo not drawn) 0.96
